# EXPERIMENTAL SYSTEM: UniProt:P13631
# Sequence (P13631 whole entry): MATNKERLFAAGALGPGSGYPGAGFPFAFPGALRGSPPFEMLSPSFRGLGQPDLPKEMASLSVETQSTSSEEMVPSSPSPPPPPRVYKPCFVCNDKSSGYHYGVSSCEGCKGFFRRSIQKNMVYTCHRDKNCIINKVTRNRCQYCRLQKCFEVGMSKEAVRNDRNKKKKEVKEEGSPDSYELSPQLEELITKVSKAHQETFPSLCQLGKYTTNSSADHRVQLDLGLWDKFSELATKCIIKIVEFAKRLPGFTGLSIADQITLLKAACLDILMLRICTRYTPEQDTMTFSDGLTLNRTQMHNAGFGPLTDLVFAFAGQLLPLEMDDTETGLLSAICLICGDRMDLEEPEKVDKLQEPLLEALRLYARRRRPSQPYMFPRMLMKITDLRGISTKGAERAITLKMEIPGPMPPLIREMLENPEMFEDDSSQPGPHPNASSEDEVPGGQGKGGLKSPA
What pKi was measured for each of the following?
# pKi is unitless: minus log10 of the molar concentration; print number only

Q: Request body: readout pKi, system UniProt:P13631, query O=C(O)c1ccc2cc(-c3ccc(C(O)CO)c(C45CC6CC(CC(C6)C4)C5)c3)ccc2c1 (stereo unspecified) . Return the value.
A: 6.82

Q: # iterate: `COc1ccc(-c2ccc3cc(C(=O)O)ccc3c2)cc1C(C)(C)C`
A: 6.37

Q: # iterate: O=C(O)c1ccc2cc(-c3ccc(OCC(O)CO)c(C45CC6CC(CC(C6)C4)C5)c3)ccc2c1 (stereo unspecified)
A: 6.82

Q: # iterate: `COc1ccc(/C(C)=C/c2ccc(C(=O)O)cc2)cc1C12CC3CC(CC(C3)C1)C2`
A: 7.02

Q: # iterate: `C/C(=C\c1ccc(C(=O)O)cc1)c1ccc(O)c(C23CC4CC(CC(C4)C2)C3)c1`
A: 7.28

Q: # iterate: `CC1(C)CCC(C)(C)c2cc(-c3ccc4cc(C(=O)O)ccc4c3)ccc21`
A: 7.40

Q: # iterate: `CC1(C)CCC(C)(C)c2cc3cc(-c4ccc(C(=O)O)cc4)ccc3cc21`
A: 8.70

Q: # iterate: `C/C(=C\c1ccc(C(=O)O)cc1)c1ccc(O)c(C2(C)CCCCC2)c1`
A: 7.57

Q: # iterate: O=C(O)c1ccc2cc(-c3ccc(CC(O)CO)c(C45CC6CC(CC(C6)C4)C5)c3)ccc2c1 (stereo unspecified)
A: 7.47
